- testSystem: Peroxisome proliferator-activated receptor delta (Homo sapiens)
- assayDetails: qHTS assay to identify small molecule antagonists of the peroxisome proliferator-activated receptor delta (PPARd) signaling pathway (AID 743215);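 also: cells stimulated with agonist L165041 at 300 nM final during compound exposure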
- condition: HEK293H PPARd-UAS-bla, beta-lactamase FRET ratio, antagonist, 17 h; series mostly up to 62 µM
Records with an inconclusive call do not appear. Activity calls are given as the source filed them. Calls follow the shape of the dose curve; as a rule, active = well fitted inhibition curve with a large enough effect in the signal ratio in the repeat runs (not every such curve was filed as active); inconclusive = weak or mixed curves, or effect the other way; inactive = no such curve, though single readings can be large or run the other way; the % refers to the signal ratio.
endpointName: outcome

Please review the entries below; each comes with its answer.
c1ccc(NNc2ccccc2)cc1 = inactive
Brc1ccc(Oc2cc(Br)c(Br)cc2Br)c(Br)c1 = inactive
ClC1C(Cl)C(Cl)C(Cl)C(Cl)C1Cl (configuration not stated) = inactive
Nc1ccc(-c2ccccc2)cc1 = inactive
CCCCN(CC)c1c([N+](=O)[O-])cc(C(F)(F)F)cc1[N+](=O)[O-] = inactive
N[C@@H](Cc1ccc(N(CCCl)CCCl)cc1)C(=O)O = inactive

# input GET /values?readout=outcome&item= "Nn1cnnc1"
# output inactive

----------
- assayDetails: qHTS assay to identify small molecule agonists of the sonic hedgehog signaling (Shh) pathway - cell viability counter screen (AID 1259366); also: nearly all actives have a fitted effect of over 50% in size
- condition: NIH/3T3 Gli1-Luc viability, CellTiter-Fluor, 24 h; series mostly up to 92.4 µM
Records with an inconclusive call do not appear. Active and inactive are the calls of the source. Calls come from the whole dose curve; as a rule, active = well fitted cell-killing curve with a large enough effect in the repeat runs; inconclusive = weak or mixed curves, or effect the other way; inactive = flat fitted curve, though single readings scatter.
Choose the fitting class; nothing outside True (active), False (inactive) is accepted.

Known results for compounds:
CNC(=O)N(C)c1nnc(C(C)(C)C)s1 = False
CCCCC(CC)COC(=O)c1ccc(C(=O)OCC(CC)CCCC)c(C(=O)OCC(CC)CCCC)c1 (stereo not drawn) = False
Cc1ccc(N)c(N)c1 = False
ClC1C(Cl)C(Cl)C(Cl)C(Cl)C1Cl (stereo not drawn) = False
Nc1ccc(-c2ccccc2)cc1 = False

# input Record lookup: outcome of this test for "COC(=O)c1sccc1S(=O)(=O)NC(=O)Nc1nc(C)nc(OC)n1" ?
# output False

# input Now the compound "CCN(CC)C(=O)/C(Cl)=C(\C)OP(=O)(OC)OC"
# output False

----------
- testSystem: Glucocorticoid receptor (Homo sapiens) (UniProt P04150)
- Sequence (P04150 whole entry, looked up): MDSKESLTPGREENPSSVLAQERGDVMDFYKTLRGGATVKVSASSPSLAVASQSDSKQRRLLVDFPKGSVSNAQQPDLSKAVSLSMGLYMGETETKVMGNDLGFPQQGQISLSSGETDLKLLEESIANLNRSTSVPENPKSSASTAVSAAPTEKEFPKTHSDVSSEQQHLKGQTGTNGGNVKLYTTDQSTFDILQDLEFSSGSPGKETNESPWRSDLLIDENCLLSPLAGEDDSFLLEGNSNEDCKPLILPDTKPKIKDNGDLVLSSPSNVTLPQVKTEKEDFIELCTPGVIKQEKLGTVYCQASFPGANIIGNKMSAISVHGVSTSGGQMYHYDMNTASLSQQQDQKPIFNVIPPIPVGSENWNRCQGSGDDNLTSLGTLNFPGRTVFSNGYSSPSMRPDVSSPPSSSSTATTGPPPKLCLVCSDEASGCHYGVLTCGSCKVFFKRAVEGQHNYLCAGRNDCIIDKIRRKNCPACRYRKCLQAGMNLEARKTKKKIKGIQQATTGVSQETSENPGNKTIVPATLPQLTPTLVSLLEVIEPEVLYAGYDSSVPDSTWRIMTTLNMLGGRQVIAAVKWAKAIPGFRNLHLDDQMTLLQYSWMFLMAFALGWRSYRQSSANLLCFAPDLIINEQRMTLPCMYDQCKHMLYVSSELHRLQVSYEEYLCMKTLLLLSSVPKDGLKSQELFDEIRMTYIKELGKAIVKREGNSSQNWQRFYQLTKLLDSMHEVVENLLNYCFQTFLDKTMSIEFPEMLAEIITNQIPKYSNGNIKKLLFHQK
- assayDetails: qHTS assay to identify small molecule antagonists of the glucocorticoid receptor (GR) signaling pathway (AID 720692)
- condition: GR-bla HeLa, beta-lactamase FRET ratio, dexamethasone-stimulated, 18 h; series mostly up to 58.5 µM
Results filed as inconclusive are left out. The source made the active and inactive calls. The call rests on the fitted dose curve; in most records, active means well fitted inhibition curve with a large enough effect in the signal ratio in the repeat runs (not every such curve was filed as active); inconclusive means weak or mixed curves, or effect the other way; inactive means no such curve, though single readings can be large or run the other way; the % refers to the signal ratio.
Choose the fitting class; nothing outside active, inactive is accepted.

CCN(CC)C(=O)/C(Cl)=C(\C)OP(=O)(OC)OC = inactive
Clc1nc(Cl)nc(Cl)n1 = inactive
O=[N+]([O-])c1c(Cl)c(Cl)c(Cl)c(Cl)c1Cl = active

# input Record lookup: outcome of this test for "Nc1c(Cl)cc([N+](=O)[O-])cc1Cl" ?
# output inactive

# input Now the compound "Nc1ccc(Cl)cc1N"
# output inactive

# input Now the compound "c1ccc(N=Nc2ccccc2)cc1"
# output inactive

# input Now the compound "C#C[C@]1(O)CC[C@H]2[C@@H]3CCC4=CC(=O)CC[C@]4(C)[C@H]3CC[C@@]21C"
# output active

# input Now the compound "CCOc1cc(C=O)ccc1O"
# output inactive

# input Now the compound "N#CC(Br)Br"
# output inactive

# input Now the compound "CC(C)NC(C)C"
# output inactive

# input Now the compound CCOC(=O)C(C)OC(=O)c1cc(Oc2ccc(C(F)(F)F)cc2Cl)ccc1[N+](=O)[O-] (centres undefined)
# output inactive

# input Now the compound "COP(=S)(OC)Oc1cc(Cl)c(Cl)cc1Cl"
# output inactive

# input Now the compound "CN(C)C(=O)Nc1ccc(Cl)cc1"
# output inactive

# input Now the compound "CC(C)(C)c1ccccc1O"
# output inactive

----------
- assayDetails: qHTS assay to identify small molecule antagonists of the thyroid receptor (TR) signaling pathway - cell viability counter screen (AID 743064); also: nearly all actives have a fitted effect of over 50% in size
- condition: GH3.TRE-Luc viability, CellTiter-Fluor, 24 h; series mostly up to 70.3 µM
- Description: National Center for Advancing Translational Sciences [NCATS] NIH Chemical Genomics Center [NCGC] U.S. Environmental Protection Agency [EPA] National Institutes of Environmental Health Sciences [NIEHS] National Toxicology Program [NTP] U.S. Food and Drug Administration [FDA] Thyroid receptor (TR), a nuclear hormone receptor, plays an important role in development, proliferation, differentiation, metabolism, brain function, and cardiovascular system. […]
Inconclusive results are not listed. Calls of active or inactive are those of the source. Calls come from the whole dose curve; as a rule, active = well fitted cell-killing curve with a large enough effect in the repeat runs; inconclusive = weak or mixed curves, or effect the other way; inactive = no such curve, though single readings can be large or run the other way.
Choose the fitting class; nothing outside true (active), false (inactive) is accepted.

Known results for compounds:
CC(C)(C)c1ccccc1O = false
Cc1ccccc1[N+](=O)[O-] = false
Cc1ccc2c(c1N)C(=O)c1ccccc1C2=O = true
CCCCCCCCCCCOC(=O)c1ccccc1C(=O)OCCCCCCCCCCC = false
COc1ccc(C=O)cc1 = false

# input Record lookup: outcome of this test for COc1ccc(C(CN(C)C)C2(O)CCCCC2)cc1 (centres undefined) ?
# output false

# input Now the compound "CCC(C)(C)c1ccc(O)cc1"
# output false

# input Now the compound "CCCCCCCCOC(=O)c1ccccc1C(=O)OCCCCCCCC"
# output false

# input Now the compound "O=[N+]([O-])c1cccc2ccccc12"
# output false

# input Now the compound "NNC(=S)NN"
# output false

# input Now the compound CCC(C)c1ccc(O)cc1 (centres undefined)
# output false

# input Now the compound C=C(C)C(=O)OCC1CO1 (centres undefined)
# output false

# input Now the compound "O=C(O)CC[N+](=O)[O-]"
# output false

# input Now the compound CC1(C)C(C=C(Cl)Cl)C1C(=O)OC(C#N)c1cccc(Oc2ccccc2)c1 (centres undefined)
# output false

----------
- assayDetails: qHTS assay to identify small molecule agonists of H2AX - cell viability counter screen (AID 1224847);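 also: wild-type CHO-K1 cells; top concentration of the series differs between compounds; nearly all actives have a fitted effect of over 30% in size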
- condition: CHO-K1 viability, CellTiter-Glo luminescence, 3 h; series mostly up to 154 µM
Results filed as inconclusive are left out. Active and inactive are the calls of the source. Calls follow the shape of the full dose curve.
Choose the fitting class; nothing outside True for active, False for inactive is accepted.

Known results for compounds:
Cc1cc(Cl)ccc1OCCCC(=O)O = False
NNC(=S)NN = False
c1ccc(-c2cccc(-c3ccccc3)c2)cc1 = False

# input Record lookup: outcome of this test for "O=C1C=CC(=O)C=C1" ?
# output False

----------
- testSystem: Acetylcholinesterase (Homo sapiens)
- assayDetails: Acetylcholinesterase (AChE) small molecule antagonists: colormetric cell-based qHTS assay (AID 1347395); also: nearly all actives have a fitted effect of over 30% in size
- condition: SH-SY5Y cells AChE activity, colorimetric (Ellman); series mostly up to 115 µM
Results filed as inconclusive are left out. Activity calls are given as the source filed them. Calls come from the whole dose curve.
Choose the fitting class; nothing outside True (active), False (inactive) is accepted.

O=C1C=CC(=O)C=C1 = False
c1cc(OCC2CO2)ccc1Cc1ccc(OCC2CO2)cc1 (stereo not given) = False
CN(C)c1ccc(C(=O)c2ccc(N(C)C)cc2)cc1 = False
CCCCNC(=O)n1c(NC(=O)OC)nc2ccccc21 = False
COP(=S)(OC)Oc1ccc([N+](=O)[O-])cc1 = True

# input Record lookup: outcome of this test for "CC(C)c1ccc(CO)cc1" ?
# output False

# input Now the molecule "CCN(N=O)C(N)=O"
# output False

# input Now the molecule "CCOc1cc(Oc2ccc(C(F)(F)F)cc2Cl)ccc1[N+](=O)[O-]"
# output False

# input Now the molecule "Nc1ccncc1"
# output False

# input Now the molecule "CCc1cccc(CC)c1N(COC)C(=O)CCl"
# output False

----------
- assayDetails: qHTS assay for small molecules that induce genotoxicity in human embryonic kidney cells expressing luciferase-tagged ATAD5 - cell viability (AID 651634); also: nearly all actives have a fitted effect of over 25% in size
- condition: HEK293T ATAD5-luc cells viability, CellTiter-Fluor, 15.5 h; series mostly up to 83.3 µM
Records with an inconclusive call do not appear. Activity calls are given as the source filed them. The call rests on the fitted dose curve.
Choose the fitting class; nothing outside active, inactive is accepted.

Known results for compounds:
CCCCCCCCCCCOC(=O)c1ccccc1C(=O)OCCCCCCCCCCC = inactive
Nc1ccncc1 = inactive
CCN(CC)C(=O)SCc1ccc(Cl)cc1 = inactive

# input Record lookup: outcome of this test for "O=C(O)C(F)(F)C(F)(F)C(F)(F)C(F)(F)C(F)(F)C(F)(F)C(F)(F)F" ?
# output inactive

# input Now the compound "Cc1ccc2c(c1N)C(=O)c1ccccc1C2=O"
# output active

# input Now the compound "Nc1cccnc1"
# output inactive

# input Now the compound CCOC(=O)C(C)OC(=O)c1cc(Oc2ccc(C(F)(F)F)cc2Cl)ccc1[N+](=O)[O-] (configuration not stated)
# output inactive

# input Now the compound C=C(C)C(=O)OCC1CO1 (configuration not stated)
# output inactive

----------
- assayDetails: qHTS assay to identify small molecule antagonists of the estrogen related receptor (ERR) signaling pathway from Tox21 library - cell viability counter screen (AID 1224834); also: nearly all actives have a fitted effect of over 30% in size
- condition: ERR reporter cells viability, CellTiter-Fluor, 17.5 h; series mostly up to 92.4 µM
Records with an inconclusive call do not appear. Calls of active or inactive are those of the source. Calls come from the whole dose curve; as a rule, active = well fitted cell-killing curve with a large enough effect in the repeat runs; inconclusive = weak or mixed curves; inactive = flat fitted curve, though single readings scatter.
Choose the fitting class; nothing outside active, inactive is accepted.

Known results for molecules:
C#CCOS(=O)OC1CCCCC1Oc1ccc(C(C)(C)C)cc1 (centres undefined) = active
CCC(C)c1ccc(O)cc1 (centres undefined) = inactive
CCCCCCOC(=O)c1ccccc1C(=O)OCCCCCC = inactive
Nc1ccc(Cl)c(Cl)c1 = inactive
CCC(C)(C)c1ccc(O)cc1 = inactive
CCOc1cc(Oc2ccc(C(F)(F)F)cc2Cl)ccc1[N+](=O)[O-] = inactive

# input Record lookup: outcome of this test for "Nc1c(Cl)cc([N+](=O)[O-])cc1Cl" ?
# output inactive

# input Now the molecule "CC(C)Oc1cc(-n2nc(C(C)(C)C)oc2=O)c(Cl)cc1Cl"
# output inactive

# input Now the molecule "COC(=O)c1sccc1S(=O)(=O)NC(=O)Nc1nc(C)nc(OC)n1"
# output inactive

# input Now the molecule "CCOc1cc(C=O)ccc1O"
# output inactive

# input Now the molecule "c1ccc(NNc2ccccc2)cc1"
# output inactive

Origin of measurements: PubChem BioAssay (Tox21)
